compounds and their reported Acetophenone (mM) P. denitrificans
Test system: (S)-selective ω-transaminase derived from P. denitrificans
EXPERIMENT SUMMARY: Substrate specificity of (S)-selective ω-transaminase toward keto acids
Format: biochemical, Paracoccus denitrificans
ASSAY SETUP: keto acid 20 mM, (S)-α-methylbenzylamine 20 mM, 50 mM potassium phosphate pH 7, 37° C., 10 min
# output: bare number, implied unit mM

>>> test_value("CC(C)(C)C(=O)C(=O)O [Trimethylpyruvate]")
-0.004
>>> test_value("O=CC(=O)O [Glyoxylate]")
1.076
>>> test_value("CCCC(=O)C(=O)O [2-Oxopentanoate]")
1.032
>>> test_value("CC(C)C(=O)C(=O)O [3-Methyl-2-oxobutyrate]")
-0.002
>>> test_value("CCCCC(=O)C(=O)O [2-Ketohexanoate]")
0.713

In: Identify the reported Acetophenone (mM) P. denitrificans for the following entry. O=C(O)C(=O)CO [β-Hydroxypyruvate]
Out: 0.066

----------
Test system: (S)-selective ω-transaminase derived from P. denitrificans
EXPERIMENT SUMMARY: Substrate specificity of (S)-selective ω-transaminase toward keto acids
Format: biochemical, Paracoccus denitrificans
ASSAY SETUP: keto acid 20 mM, (S)-α-methylbenzylamine 20 mM, 50 mM potassium phosphate pH 7, 37° C., 10 min
Each entry below lists one item and its recorded Acetophenone (mM) P. denitrificans value.
Report as: number unit

Answered cases to consult:
>>> test_value("O=C(O)CCC(=O)C(=O)O [α-Ketoglutarate]")
"-0.003 mM"
>>> test_value("CCC(C)C(=O)C(=O)O (centres unmarked) [3-Methyl-2-oxopentanoate]")
"-0.004 mM"
>>> test_value("CC(C)CC(=O)C(=O)O [4-Methyl-2-oxopentanoate]")
"0.175 mM"
>>> test_value("O=C(O)C(=O)CF [Fluoropyruvate]")
"0.339 mM"
>>> test_value("O=C(O)C(=O)CS [Mercaptopyruvate]")
"0.008 mM"

In: Output Acetophenone (mM) P. denitrificans of CCC(=O)C(=O)O [2-Oxobutyrate]
Out: 0.821 mM

In: Specify measured Acetophenone (mM) P. denitrificans for O=C(O)C(=O)C12CC3CC(CC(O)(C3)C1)C2 [2-(3-Hydroxy-1-adamantyl)-oxoethanoate] .
Out: -0.004 mM

In: Give reported Acetophenone (mM) P. denitrificans value for O=CC(=O)Oc1ccccc1 [Phenyl glyoxylate]
Out: -0.008 mM

----------
System: D-amino acid transaminase
EXPERIMENT SUMMARY: Substrate specificity of purified D-amino acid transaminase toward keto acids (amino acceptors)
Type: biochemical, Bacillus sphaericus
ASSAY SETUP: amino acceptor 20 mM, D-alanine 20 mM as amino donor, 0.1 U/ml enzyme, 50 mM potassium phosphate pH 7, 37° C., 10 min
VALUE TYPE: Pyruvate (mM) generated
Give the quantity in mM, number only.

Check out these entries, answers already filled in.
>>> test_value("CC(C)CC(=O)C(=O)O [4-Methyl-2-oxopentanoate]")
0.073
>>> test_value("O=C(O)C(=O)C12CC3CC(CC(O)(C3)C1)C2 [2-(3-Hydroxy-1-adamantyl)-oxoethanoate]")
0.000
>>> test_value("CC(C)(C)C(=O)C(=O)O [Trimethylpyruvate]")
0.000
>>> test_value("O=C(O)CCC(=O)C(=O)O [α-Ketoglutarate]")
0.971
>>> test_value("O=C(O)C(=O)CS [Mercaptopyruvate]")
0.022

# next molecule below
In: In one line, give reported Pyruvate (mM) generated of the entry CCC(=O)C(=O)O [2-Oxobutyrate] .
Out: 1.375

Ref: patent US9777301B2
